- assay system: UniProt Q8NER1
- test details: Calcium mobilization assay, determination of antagonist activity
- condition context: capsaicin at EC50; cells expressing human capsaicin receptor; Example 6
quantity: IC50

Example cases with answers are listed next.
C[C@@H]1CN(c2ncc(CC#N)cc2Cl)CCN1c1cc(-c2ccc(F)cc2)nc(N2CCC[C@H]2C)n1 [Example 100] = ≤ 1000 nM
CC(C)c1cc(-c2cc(N3CCN(c4ncc(C(=O)O)cc4Cl)C[C@H]3C)nc(N3CCCC3C)n2)ccn1 (stereo partly shown) [Example 53] = ≤ 1000 nM
COCCCNC(=O)c1cnc(N2CCN(c3cc(-c4ccc(F)cc4)nc(N4CCCC4C)n3)CC2)c(C)c1 (stereo not shown) [Example 110] = ≤ 1000 nM

Consider the additional compound presented here.
Exam item: Observed IC50 on UniProt Q8NER1 for C[C@@H]1CN(c2ncc(OCCO)cc2Cl)CCN1c1cc(-c2ccc(F)c(Cl)c2)nc(N2CCC[C@H]2C)n1 [Example 183] , please.
Marked response: ≤ 1000 nM

---

- assay system: human capsaicin receptor (Homo sapiens, UniProt Q8NER1)
- Sequence (Q8NER1 whole entry): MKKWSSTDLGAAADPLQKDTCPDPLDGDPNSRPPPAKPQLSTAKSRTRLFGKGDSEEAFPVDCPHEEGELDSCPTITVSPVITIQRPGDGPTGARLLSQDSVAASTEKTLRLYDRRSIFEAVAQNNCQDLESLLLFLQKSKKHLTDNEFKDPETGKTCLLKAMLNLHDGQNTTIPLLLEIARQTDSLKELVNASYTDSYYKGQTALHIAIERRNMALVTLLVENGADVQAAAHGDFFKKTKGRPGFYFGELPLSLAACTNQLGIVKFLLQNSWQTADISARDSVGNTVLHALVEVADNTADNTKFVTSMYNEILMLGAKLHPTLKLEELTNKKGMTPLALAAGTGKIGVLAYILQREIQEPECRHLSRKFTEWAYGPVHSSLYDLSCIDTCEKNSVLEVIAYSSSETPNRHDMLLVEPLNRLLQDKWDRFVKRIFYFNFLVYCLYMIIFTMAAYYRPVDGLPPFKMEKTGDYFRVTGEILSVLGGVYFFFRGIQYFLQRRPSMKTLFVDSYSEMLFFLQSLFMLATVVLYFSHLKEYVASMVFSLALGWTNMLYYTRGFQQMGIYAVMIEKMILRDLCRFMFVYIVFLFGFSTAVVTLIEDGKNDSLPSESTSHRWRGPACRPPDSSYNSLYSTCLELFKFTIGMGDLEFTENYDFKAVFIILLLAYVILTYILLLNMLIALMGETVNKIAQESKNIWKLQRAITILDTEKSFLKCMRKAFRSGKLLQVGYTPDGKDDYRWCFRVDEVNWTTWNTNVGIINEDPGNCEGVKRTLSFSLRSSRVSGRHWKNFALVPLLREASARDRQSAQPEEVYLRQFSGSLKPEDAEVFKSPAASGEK
- test details: Calcium mobilization assay, determination of antagonist activity
- condition context: capsaicin at EC50; cells expressing human capsaicin receptor; Example 6
pIC50: −log10 of the molar value.
quantity: pIC50

Sample records with pIC50:
Cc1cc(C(=O)NCc2cccs2)cnc1N1CCN(c2cc(-c3ccc(F)cc3)nc(N3CCCC3C)n2)CC1 (centres unmarked) = ≥ 6.00
Cc1cc(C(=O)N2CCSCC2)cnc1N1CCN(c2cc(-c3ccc(F)cc3)nc(N3CCCC3C)n2)CC1 (centres unmarked) = ≥ 6.00
CC1CCCN1c1nc(-c2ccc(F)cc2)cc(N2CCN(c3ncc(C(=O)O)cc3Cl)C[C@H]2C)n1 (some centres unmarked) = ≥ 6.00
Cc1cc(C(=O)N2CCC(c3ccccc3)CC2)cnc1N1CCN(c2cc(-c3ccc(F)cc3)nc(N3CCCC3C)n2)CC1 (centres unmarked) = ≥ 6.00
Cc1cc(OCCO)cnc1N1CCN(c2cc(-c3ccc(F)cc3)nc(N3CCC[C@H]3C)n2)[C@H](C)C1 (relative stereo) = ≥ 6.00

Exam item: Which pIC50 reading was recorded for the compound CC1CCCN1c1nc(-c2ccc(F)cc2)cc(N2CCN(c3ncc(C(N)=O)cc3Cl)C[C@H]2C)n1 (some centres unmarked) ?
Marked response: ≥ 6.00

Exam item: I'd like to know its pIC50. The compound in question is `O=C(O)c1cnc(N2CCN(c3cc(-c4ccc(F)cc4)nc(N4CCC[C@H]4CO)n3)CC2)c(Cl)c1`
Marked response: ≥ 6.00

Exam item: Given Cc1cc(CO)cnc1N1CCN(c2cc(-c3ccnc(C(C)C)c3)nc(N3CCCC3C)n2)[C@H](C)C1 (some centres unmarked) , state its recorded pIC50.
Marked response: ≥ 6.00

Exam item: Name the reported pIC50 value associated with the compound CCOC(=O)c1cnc(N2CCN(c3cc(-c4cncc(Cl)c4)nc(N4CCCC4C)n3)[C@H](C)C2)c(Cl)c1 (some centres unmarked)
Marked response: ≥ 6.00

Exam item: Entry `Cc1cc(C(=O)O)cnc1N1CCN(c2cc(-c3ccc(F)cc3)nc(N(C)C)n2)[C@H](C)C1` has what pIC50?
Marked response: ≥ 6.00
